Tested on: Osteoblasts (Calvarial cells)
Test: Cytotoxicity test (MTT)
Conditions: 1 μM compound, 72 hours, in comparison with vehicle control
# maps each entry to its Cell viability (%) Calvarial cell
// note: answer is a bare numeric in %

Check out these entries, answers already filled in.
NC1CCN(c2ccc(Nc3nc(NCCCN4CCOCC4)ccc3[N+](=O)[O-])cc2F)CC1 [Compound 260] : 107
O=[N+]([O-])c1ccc(NCc2cccnc2)nc1Nc1ccc(N2CCC(O)CC2)c(F)c1 [Compound 241] : 100
CCN(CC)c1ccc(Nc2nc(NCCCN3CCOCC3)ccc2[N+](=O)[O-])cc1F [Compound 190] : 123
CC(C)Nc1ccc([N+](=O)[O-])c(Nc2ccc(N3CCCCC3C)c(F)c2)n1 (stereo not shown) [Compound 262] : 109
NC1CCN(c2ccc(Nc3nc(N4CCNCC4)ccc3[N+](=O)[O-])cc2F)CC1 [Compound 253] : 104
NC(=O)C1CCN(c2ccc(Nc3nc(N4CCNCC4)ccc3[N+](=O)[O-])cc2F)CC1 [Compound 294] : 95

[Q] Cell viability (%) Calvarial cell for O=[N+]([O-])c1ccc(N2CCC(O)CC2)nc1Nc1ccc(N2CCSCC2)c(F)c1 [Compound 206] ?
[A] 102

[Q] # lookup: Cell viability (%) Calvarial cell of NC1CCN(c2ccc([N+](=O)[O-])c(Nc3ccc(N4CCOCC4)c(F)c3)n2)CC1 [Compound 202]
[A] 96

[Q] Which Cell viability (%) Calvarial cell reading was recorded for the compound CC1CCCCN1c1ccc(Nc2nc(N3CCOCC3)ccc2[N+](=O)[O-])cc1F (stereo not shown) [Compound 269] ?
[A] 113

[Q] Quick check: Cell viability (%) Calvarial cell of Cc1ccc(Nc2nc(NCc3ccncc3)ccc2[N+](=O)[O-])cc1 [Compound 8] ?
[A] 92

----------
Tested on: Osteoblasts (Calvarial cells)
Assay: Cytotoxicity test (MTT)
Details: 1 μM compound, 72 hours, in comparison with vehicle control
Quick reference for Cell viability (%) Calvarial cell among some compounds
Unit % implied. Number only.

# example entries with known answers
CC1CCCCN1c1ccc(Nc2nc(N3CCN(C)CC3)ccc2[N+](=O)[O-])cc1F (centres unmarked) [Compound 268] : 104
CC(C)CNc1ccc([N+](=O)[O-])c(Nc2ccc(N3CCCC(C(N)=O)C3)c(F)c2)n1 (centres unmarked) [Compound 303] : 102
NC(=O)C1CCCN(c2ccc(Nc3nc(NCCCn4ccnc4)ccc3[N+](=O)[O-])cc2F)C1 (centres unmarked) [Compound 312] : 98
Nc1cccc(Nc2nc(NCCN3CCOCC3)ccc2[N+](=O)[O-])c1 [Compound 83] : 99

Please turn your attention to the following entry.
[Q] Using the record for Nc1ccc(Nc2nc(NCCN3CCOCC3)ccc2[N+](=O)[O-])cc1 [Compound 68] , report its Cell viability (%) Calvarial cell.
[A] 103

----------
Tested on: formation of osteoclasts in co-culture of bone marrow cells and osteoblasts
Assay: Osteoclastogenesis inhibition via co-culture system (TRAP staining)
Format: cell-based, mice
Conditions: Mus musculus, Osteoclast, 168 h; 1 μM compound, 7 days co-culture, TRAP-positive multinucleated osteoclasts vs vehicle control
Would you mind labelling by inhibition at 1 µM? At or over 80% is rule met, under is rule not met.

CC(C)(C)c1ccc(Nc2nc(N3CCNCC3)ccc2[N+](=O)[O-])cc1 : rule met
CC(=O)c1cccc(Nc2nc(NCc3ccncc3)ccc2[N+](=O)[O-])c1 : rule not met
CC(C)(C)c1ccc(Nc2nc(N3CCC(N)CC3)ccc2[N+](=O)[O-])cc1 : rule met

[Q] Test whether the molecule Cc1nc(-c2ccc(Nc3nc(N4CCOCC4)ccc3[N+](=O)[O-])cc2)cs1 records inhibition at 1 µM of 80% or higher.
[A] rule met

[Q] Could you tell me if the measured inhibition at 1 µM of O=[N+]([O-])c1ccc(NCc2cccnc2)nc1Nc1ccc(-n2ccnc2)cc1 reaches 80% or more?
[A] rule not met

[Q] Exam item: decide whether the reported inhibition at 1 µM for O=[N+]([O-])c1ccc(NCc2ccncc2)nc1Nc1ccc(-c2csc(C3CCCCC3)n2)cc1 is at least 80%.
[A] rule not met

[Q] Decide: is the reported value of inhibition at 1 µM for COc1ccc(Nc2nc(N3CCC(N)CC3)ccc2[N+](=O)[O-])cc1 equal to or greater than 80%?
[A] rule met

[Q] API: above_or_equal(metric=inhibition at 1 µM, cutoff=80%) for item CC(=O)c1cccc(Nc2nc(N3CCNCC3)ccc2[N+](=O)[O-])c1
[A] rule met

[Q] Hi, just wondering whether CC(C)(C)c1ccc(Nc2nc(NCCc3ccccn3)ccc2[N+](=O)[O-])cc1 shows inhibition at 1 µM of 80% or higher.
[A] rule met

[Q] Given CC(C)c1nccn1-c1ccc([N+](=O)[O-])c(Nc2ccc(-n3ccnc3)cc2)n1 , state whether its inhibition at 1 µM is at least 80%.
[A] rule not met

[Q] Is the recorded value of inhibition at 1 µM equal to or greater than 80% for this molecule? CNc1ccc([N+](=O)[O-])c(Nc2ccc(-c3csc(C4CCCCC4)n3)cc2)n1
[A] rule not met

[Q] Can Cc1ccc(Nc2nc(NCCCn3ccnc3)ccc2[N+](=O)[O-])cc1 be said to have inhibition at 1 µM at or above 80%?
[A] rule met

[Q] Say whether Cc1nc(-c2ccc(Nc3nc(NCc4cccnc4)ccc3[N+](=O)[O-])cc2)cs1 shows inhibition at 1 µM of 80% or more.
[A] rule met

[Q] In plain terms: is recorded inhibition at 1 µM at least 80% for CSc1ccc(Nc2nc(NCCCn3ccnc3)ccc2[N+](=O)[O-])cc1 ?
[A] rule met

[Q] # check: inhibition at 1 µM of CC(C)Nc1ccc([N+](=O)[O-])c(Nc2ccc(-c3csc(C4CCCCC4)n3)cc2)n1 is greater than or equal to 80%
[A] rule met

FYI, the data here is from patent US20110306606A1.
